Please find below Ki data on Prostaglandin E2 receptor EP4 subtype (Mus musculus) compiled from the literature.
readout kind: Ki (nM)

A: CCCCC[C@@H](/C=C/[C@@H]1[C@@H](C/C=C\CCCC(=O)O)[C@H](Cl)C[C@H]1OC)OC
B: CCCOCc1cccc(C[C@H](O)/C=C/[C@H]2[C@H](O)CC(=O)[C@@H]2CCSCCCC(=O)O)c1
C: O=C(O)CSCCCS[C@H]1C(=O)C[C@@H](O)[C@@H]1/C=C/[C@@H](O)C1CCCCC1
Write the entries in order, lowest recorded Ki first. To answer, write out the labels according to the requested order.
B, C, A
(B: 15 nM, C: 22 nM, A: 73 nM)
